Test system: normal NK cells expanded with K562-aAPC
methodNotes: percent inhibition of viability; higher = more inhibition
conditionParameters: 72 h; IL-2 2.5 ng/mL; 250 nM
endpointLabel: percent inhibition of viability

Reference set (5 entries):
{"molecule": "COC[C@H](NC(=O)c1cnc(C)s1)C(=O)N[C@@H](COC)C(=O)N[C@@H](Cc1ccccc1)C(=O)[C@@]1(C)CO1 [Oprozomib] (max concentration tested 2500 nM)", "percent inhibition of viability": "101%"}
{"molecule": "O=C(Nc1cc(Cl)cc2c1[nH]c1cnccc12)c1cccnc1 [PS-1145] (max concentration tested 25000 nM)", "percent inhibition of viability": "-1.48%"}
{"molecule": "C[C@@H]1CN(CC(=O)Nc2ccc3c(c2)Cc2cccc(-c4cc(=O)cc(N5CCOCC5)o4)c2S3)C[C@H](C)O1 (max concentration tested 25000 nM)", "percent inhibition of viability": "-11.6%"}
{"molecule": "Cc1cc([C@@H](C)Nc2ccccc2C(=O)O)c2nc(N3CCOCC3)cc(=O)n2c1 [AZD-6482] (max concentration tested 2500 nM)", "percent inhibition of viability": "12.4%"}
{"molecule": "CC(C)(C)c1nc(-c2cccc(NS(=O)(=O)c3c(F)cccc3F)c2F)c(-c2ccnc(N)n2)s1 [Dabrafenib] (max concentration tested 2500 nM)", "percent inhibition of viability": "-1.61%"}

Turning now to a further molecule:
Ask: Please report the recorded percent inhibition of viability for COc1ccc2c(OCc3nnc4ccc(-c5ccccc5)nn34)ccnc2c1 [AMG-208] (max concentration tested 2500 nM) .
Result: -1.02%

---

Tested on: NK-YS (IL-2 2.5 ng/mL)
methodNotes: percent inhibition of viability; higher = more inhibition
conditionParameters: 72 h; 1 nM
Listing of recorded percent inhibition of viability by entry.
Kindly provide the numeric value in % only, without the unit symbol.

{"compound": "Oc1nc(-c2ccc(C(F)(F)F)cc2)nc2c1CSCC2 [XAV-939] (max concentration tested 10000 nM)", "percent inhibition of viability / %": -12.6}

Ask: Please report the recorded percent inhibition of viability for CC1(COc2ccc3c(c2)ncn3-c2ccc3cccc(N4CCC(N)CC4)c3n2)COC1 [Crenolanib] (max concentration tested 10000 nM) .
Result: -3.61

Ask: Please report the recorded percent inhibition of viability for CCN(CC)CCOc1ccc(C(=C(Cl)c2ccccc2)c2ccccc2)cc1 [Clomifene] (max concentration tested 10000 nM) .
Result: -0.14

Ask: Please report the recorded percent inhibition of viability for O=C(CCCCCCC(=O)Nc1ccc([C@H]2O[C@@H](CSc3nc(-c4ccccc4)c(-c4ccccc4)o3)C[C@@H](c3ccc(CO)cc3)O2)cc1)NO [Tubacin] (max concentration tested 10000 nM) .
Result: -6.18

---

System: normal primary NK cells, pool 3 (3 donors) (IL-2 2.5 ng/mL)
methodNotes: percent inhibition of viability; higher = more inhibition
conditionParameters: 72 h; 10000 nM
endpointLabel: percent inhibition of viability (%)
Kindly provide the numeric value in % only, without the unit symbol.

{"compound": "O=P1(NCCCl)OCCCN1CCCl (configuration not stated) [Ifosfamide] (max concentration tested 10000 nM)", "percent inhibition of viability (%)": -1.46}

Ask: Please report the recorded percent inhibition of viability for Cn1c(CCCC(=O)O)nc2cc(N(CCCl)CCCl)ccc21 [Bendamustine] (max concentration tested 10000 nM) .
Result: 54.3

Ask: Please report the recorded percent inhibition of viability for CN[C@@H](C)C(=O)N[C@H]1CN(C(=O)CC(C)C)CC[C@H]2CC[C@@H](C(=O)NC(c3ccccc3)c3ccccc3)N2C1=O [AT-406] (max concentration tested 10000 nM) .
Result: 61.8

---

Listing of recorded percent inhibition of viability by entry.
System: DERL-7 (IL-2 2.5 ng/mL)
methodNotes: percent inhibition of viability; higher = more inhibition
conditionParameters: 72 h; 10000 nM
Kindly provide the numeric value in % only, without the unit symbol.

Reference set (2 entries):
{"compound": "O=C(CCCCCCC(=O)Nc1ccccc1)NO [Vorinostat] (max concentration tested 10000 nM)", "systemTested": "DERL-7 (IL-2 2.5 ng/mL)", "percent inhibition of viability (%)": 101}
{"compound": "CO[C@@H](C(=O)N1Cc2[nH]nc(NC(=O)c3ccc(N4CCN(C)CC4)cc3)c2C1)c1ccccc1 [Danusertib] (max concentration tested 10000 nM)", "systemTested": "DERL-7 (IL-2 2.5 ng/mL)", "percent inhibition of viability (%)": 73.3}

Turning now to a further compound:
Ask: Please report the recorded percent inhibition of viability for CC/C(=C(\c1ccccc1)c1ccc(OCCN(C)C)cc1)c1ccccc1 [Tamoxifen] (max concentration tested 10000 nM) .
Result: 58.1

---

Tested on: NK-YS (IL-2 2.5 ng/mL)
methodNotes: percent inhibition of viability; higher = more inhibition
conditionParameters: 72 h; 10000 nM
Binarize percent inhibition of viability at 50%; below is True, at or above is False.

{"molecule": "O=C(NC[C@H](O)CO)c1ccncc1Nc1ccc(I)cc1F [Pimasertib] (max concentration tested 10000 nM)", "groupLabel": "True"}
{"molecule": "C[C@@H]1C[C@H]2[C@@H]3CCC4=CC(=O)C=C[C@]4(C)[C@@]3(F)[C@@H](O)C[C@]2(C)[C@@]1(O)C(=O)CO [Dexamethasone] (max concentration tested 10000 nM)", "groupLabel": "True"}
{"molecule": "CCN(CC)CCOc1ccc(C(=C(Cl)c2ccccc2)c2ccccc2)cc1 [Clomifene] (max concentration tested 10000 nM)", "groupLabel": "False"}
{"molecule": "CN(C)CCN1C(=O)c2cccc3cc(N)cc(c23)C1=O [Amonafide] (max concentration tested 10000 nM)", "groupLabel": "False"}
{"molecule": "CC(C)NC[C@@H](C(=O)N1CCN(c2ncnc3c2[C@H](C)C[C@H]3O)CC1)c1ccc(Cl)cc1 [GDC-0068] (max concentration tested 10000 nM)", "groupLabel": "True"}

Consider the additional molecule presented here.
Ask: Is it true that percent inhibition of viability reported for c1ccc(Cn2c(-c3ccc(OC[C@H](C4CCNCC4)n4c(-c5ccccc5)nc5ccccc54)cc3)nc3ccccc32)cc1 [deltarasin] (max concentration tested 10000 nM) is less than 50%?
Result: False

---

Tested on: NK-92 (IL-2 2.5 ng/mL)
methodNotes: drug sensitivity score (DSS) (DSS units); higher = more sensitive; extreme values may be limits of the assay
conditionParameters: 72 h
Listing of recorded drug sensitivity score by entry.
Number, no unit, nothing else.

{"compound": "CC[C@H](C)C(=O)O[C@H]1C[C@@H](C)C=C2C=C[C@H](C)[C@H](CC[C@@H]3C[C@@H](O)CC(=O)O3)[C@H]21 [Lovastatin] (max concentration tested 10000 nM)", "drug sensitivity score": 0}
{"compound": "COc1cc(OC)c(/C=C/S(=O)(=O)Cc2ccc(OC)c(NCC(=O)O)c2)c(OC)c1 [Rigosertib] (max concentration tested 10000 nM)", "drug sensitivity score": 26.8}
{"compound": "Cc1cc(Nc2nc(N[C@@H](C)c3ncc(F)cn3)ncc2Cl)[nH]n1 [AZD1480] (max concentration tested 1000 nM)", "drug sensitivity score": 8.24}

Ask: Please report the recorded drug sensitivity score for O=C(O)c1ccc(-c2c[nH]c3ncc(-c4ccccc4)cc23)cc1C1CCCC1 (max concentration tested 10000 nM) .
Result: 4.5

Ask: Please report the recorded drug sensitivity score for C[C@@H]1CN(CC(=O)Nc2ccc3c(c2)Cc2cccc(-c4cc(=O)cc(N5CCOCC5)o4)c2S3)C[C@H](C)O1 (max concentration tested 25000 nM) .
Result: 8.57

Ask: Please report the recorded drug sensitivity score for CC1(C)NC(=O)N(c2ccc([N+](=O)[O-])c(C(F)(F)F)c2)C1=O [Nilutamide] (max concentration tested 10000 nM) .
Result: 0.81

---

Test system: normal primary NK cells, pool 2 (3 donors) (IL-2 2.5 ng/mL)
methodNotes: percent inhibition of viability; higher = more inhibition
conditionParameters: 72 h; 10000 nM
Binarize percent inhibition of viability at 50%; below is t, at or above is f.

{"compound": "Nc1ccccc1NC(=O)c1ccc(CNc2nccc(-c3cccnc3)n2)cc1 [Mocetinostat] (max concentration tested 10000 nM)", "systemTested": "normal primary NK cells, pool 2 (3 donors) (IL-2 2.5 ng/mL)", "groupLabel": "f"}

Ask: Is it true that percent inhibition of viability reported for c1ccc(Cn2c(-c3ccc(OC[C@H](C4CCNCC4)n4c(-c5ccccc5)nc5ccccc54)cc3)nc3ccccc32)cc1 [deltarasin] (max concentration tested 10000 nM) is less than 50%?
Result: f

---

Tested on: normal primary NK cells, pool 1 (3 donors) (IL-2 2.5 ng/mL)
methodNotes: percent inhibition of viability; higher = more inhibition
conditionParameters: 72 h; 10 nM
Listing of recorded percent inhibition of viability by entry.

Reference set (3 entries):
{"molecule": "CN(N=O)C(=O)N[C@@H](C=O)[C@@H](O)[C@H](O)[C@H](O)CO [Streptozocin] (max concentration tested 10000 nM)", "percent inhibition of viability": "-7.4%"}
{"molecule": "COc1cc([C@@H]2c3cc4c(cc3[C@@H](O[C@@H]3O[C@@H]5CO[C@@H](C)O[C@H]5[C@H](O)[C@H]3O)[C@H]3COC(=O)[C@H]23)OCO4)cc(OC)c1O [Etoposide] (max concentration tested 10000 nM)", "percent inhibition of viability": "1.58%"}
{"molecule": "CC1(COc2ccc3c(c2)ncn3-c2ccc3cccc(N4CCC(N)CC4)c3n2)COC1 [Crenolanib] (max concentration tested 10000 nM)", "percent inhibition of viability": "-5.93%"}

Ask: // map COc1nc(N)nc2c1ncn2[C@@H]1O[C@H](CO)[C@@H](O)[C@@H]1O [Nelarabine] (max concentration tested 10000 nM) to recorded percent inhibition of viability (system: normal primary NK cells, pool 1 (3 donors) (IL-2 2.5 ng/mL))
Result: -4.07%

Ask: // map N#CCNC(=O)c1ccc(-c2ccnc(Nc3ccc(N4CCOCC4)cc3)n2)cc1 [Momelotinib] (max concentration tested 10000 nM) to recorded percent inhibition of viability (system: normal primary NK cells, pool 1 (3 donors) (IL-2 2.5 ng/mL))
Result: -4.36%

Ask: // map NC1(c2ccc(-c3nc4ccn5c(=O)[nH]nc5c4cc3-c3ccccc3)cc2)CCC1 [MK-2206] (max concentration tested 1000 nM) to recorded percent inhibition of viability (system: normal primary NK cells, pool 1 (3 donors) (IL-2 2.5 ng/mL))
Result: 2.37%

Data origin, for the record: the supplement of paper PMC5908809
